# Test system: LOX IMVI
# testSummary: NCI tumour cell line growth inhibition, 48 h
Active and inactive are the calls of the source. Cut-off read from the data, not from the text of the source: active = GI50 up to about 1.1 µM and inactive = higher.
# GI50 per record follows

chemSmiles	GI50
O=C(C#Cc1ccccc1)NC/C=C/c1ccccc1	38.5 µM (inactive)
Cc1ccc(NCCO)cc1	> 100 µM (inactive)
O=C(N/C(=C\c1cc(Cl)ccc1Cl)c1nc2c(O)nc(S)nc2[nH]1)c1ccccc1	22.1 µM (inactive)
COC(=O)c1ccc(C(=O)OC)c2nc3cc(Cl)ccc3nc12	> 100 µM (inactive)
CN1CCN(C)C1c1cccc(C2N(C)CCN2C)c1	> 100 µM (inactive)
CN(C)c1n2c3cc([N+](=O)[O-])ccc3[n+]3c(N(C)C)n4ccccc4c3c2c2cccc[n+]12.[O-][Cl+3]([O-])([O-])[O-].[O-][Cl+3]([O-])([O-])[O-]	> 100 µM (inactive)
